Biological target: T1, human EphB1 (Homo sapiens, UniProt P54762)
T1 construct: a protein of the extracellular region of each human Eph receptor fused with the SEAP protein and the His tag; made in house; host or cells: Expi293F cells (culture supernatant)
T1 sequence (P54762 18-540 limits assumed): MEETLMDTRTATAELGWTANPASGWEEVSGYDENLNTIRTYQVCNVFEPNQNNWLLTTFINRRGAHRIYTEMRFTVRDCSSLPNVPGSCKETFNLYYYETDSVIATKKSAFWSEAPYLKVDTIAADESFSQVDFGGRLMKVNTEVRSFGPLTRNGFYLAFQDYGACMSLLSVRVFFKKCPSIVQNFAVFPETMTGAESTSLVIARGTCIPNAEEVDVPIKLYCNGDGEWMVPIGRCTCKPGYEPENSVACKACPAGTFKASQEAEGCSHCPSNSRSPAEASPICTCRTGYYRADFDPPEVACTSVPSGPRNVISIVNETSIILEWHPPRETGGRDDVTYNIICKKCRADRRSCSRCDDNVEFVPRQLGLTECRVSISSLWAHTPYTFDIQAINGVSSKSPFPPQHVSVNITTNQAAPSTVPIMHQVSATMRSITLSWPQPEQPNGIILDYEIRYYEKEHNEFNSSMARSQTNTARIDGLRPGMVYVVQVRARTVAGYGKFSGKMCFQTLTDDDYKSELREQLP
Assay: Selectivity ELISA of humanized antibodies for human Eph receptor
Assay type: binding
Settings: coated protein 1 nM
# Lookup of reported hEphB1-SEAP-: absorbance at 450 nm, percentage with respect to hEphA4-SEAP-His as 100% keyed by entry
Give just the number in %; leave the unit off.

{"MOLECULE": "95 (antibody, V domains shown, constant regions without entry; synthetic humanized antibody light chain variable region sequence; synthetic humanized antibody heavy chain variable region sequence) VL: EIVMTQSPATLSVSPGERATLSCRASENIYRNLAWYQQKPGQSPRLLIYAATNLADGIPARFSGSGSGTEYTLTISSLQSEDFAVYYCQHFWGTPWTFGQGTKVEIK VH: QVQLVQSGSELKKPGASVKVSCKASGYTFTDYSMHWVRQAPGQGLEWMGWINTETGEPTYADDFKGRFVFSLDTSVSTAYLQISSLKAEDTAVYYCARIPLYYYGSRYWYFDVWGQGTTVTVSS", "ASSAY VALUE": 4.6}

Okay, next one:
[Q] Query: hEphB1-SEAP-: absorbance at 450 nm, percentage with respect to hEphA4-SEAP-His as 100%; subject: 135 (antibody, V domains shown, synthetic humanized antibody heavy chain variable region sequence; synthetic humanized antibody light chain variable region sequence) VH: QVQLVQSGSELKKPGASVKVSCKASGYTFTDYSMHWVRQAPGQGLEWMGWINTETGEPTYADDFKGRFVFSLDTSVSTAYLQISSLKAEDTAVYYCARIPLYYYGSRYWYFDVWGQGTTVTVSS VL: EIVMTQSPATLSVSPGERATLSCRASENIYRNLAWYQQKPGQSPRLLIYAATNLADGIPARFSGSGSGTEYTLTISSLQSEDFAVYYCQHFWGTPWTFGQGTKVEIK
[A] 5.1
